All figures here come from patent US20240208968A1.

// reported IC50 for each item listed
# assayTarget: αvβ1 (Homo sapiens, UniProt P05556+P06756)
# Sequence (P06756 31-992 limits assumed): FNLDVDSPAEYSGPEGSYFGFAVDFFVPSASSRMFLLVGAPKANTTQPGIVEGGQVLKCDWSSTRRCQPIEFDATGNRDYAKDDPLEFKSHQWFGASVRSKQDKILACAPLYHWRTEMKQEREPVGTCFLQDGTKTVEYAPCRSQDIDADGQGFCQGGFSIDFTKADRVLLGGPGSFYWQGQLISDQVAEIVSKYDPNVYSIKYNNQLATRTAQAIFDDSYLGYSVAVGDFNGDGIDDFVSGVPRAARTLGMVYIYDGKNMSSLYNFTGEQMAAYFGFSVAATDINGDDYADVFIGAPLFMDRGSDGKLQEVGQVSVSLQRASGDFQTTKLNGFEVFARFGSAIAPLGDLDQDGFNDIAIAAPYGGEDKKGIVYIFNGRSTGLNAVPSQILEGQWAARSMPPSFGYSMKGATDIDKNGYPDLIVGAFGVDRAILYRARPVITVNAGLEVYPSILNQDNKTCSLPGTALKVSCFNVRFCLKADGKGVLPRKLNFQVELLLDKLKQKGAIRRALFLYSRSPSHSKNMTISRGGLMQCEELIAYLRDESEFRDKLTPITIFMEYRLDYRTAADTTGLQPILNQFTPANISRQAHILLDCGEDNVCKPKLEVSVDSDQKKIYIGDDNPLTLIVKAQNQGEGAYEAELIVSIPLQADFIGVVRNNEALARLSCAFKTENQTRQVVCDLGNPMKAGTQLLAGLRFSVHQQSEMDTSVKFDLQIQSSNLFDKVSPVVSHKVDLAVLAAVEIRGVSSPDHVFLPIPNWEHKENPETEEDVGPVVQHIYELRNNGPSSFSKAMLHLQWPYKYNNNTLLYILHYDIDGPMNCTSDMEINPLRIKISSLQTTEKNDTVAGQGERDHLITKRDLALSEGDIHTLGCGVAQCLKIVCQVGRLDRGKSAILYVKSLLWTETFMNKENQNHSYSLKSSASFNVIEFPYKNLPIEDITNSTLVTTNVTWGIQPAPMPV
# Sequence (P05556 21-728 limits assumed): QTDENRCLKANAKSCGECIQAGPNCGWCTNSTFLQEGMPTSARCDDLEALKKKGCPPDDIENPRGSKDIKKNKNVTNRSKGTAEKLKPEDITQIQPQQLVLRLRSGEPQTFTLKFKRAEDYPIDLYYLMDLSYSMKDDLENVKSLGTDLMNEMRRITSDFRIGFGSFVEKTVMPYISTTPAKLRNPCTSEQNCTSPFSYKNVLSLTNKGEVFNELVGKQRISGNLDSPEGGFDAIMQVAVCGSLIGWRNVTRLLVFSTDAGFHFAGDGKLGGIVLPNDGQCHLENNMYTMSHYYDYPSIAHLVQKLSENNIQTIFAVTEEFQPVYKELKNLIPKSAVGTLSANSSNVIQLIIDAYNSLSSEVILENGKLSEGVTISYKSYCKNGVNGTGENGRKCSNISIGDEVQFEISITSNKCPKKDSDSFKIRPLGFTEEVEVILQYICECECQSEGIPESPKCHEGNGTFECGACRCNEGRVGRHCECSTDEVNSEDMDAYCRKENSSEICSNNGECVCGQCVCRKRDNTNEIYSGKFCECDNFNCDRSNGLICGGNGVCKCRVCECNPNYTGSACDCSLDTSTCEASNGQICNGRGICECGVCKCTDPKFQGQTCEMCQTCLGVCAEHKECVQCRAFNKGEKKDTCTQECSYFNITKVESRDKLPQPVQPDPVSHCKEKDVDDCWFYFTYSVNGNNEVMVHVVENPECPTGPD
# experimentSummary: Solid Phase Integrin αvβ1 Assay

[
  {
    "givenSmiles": "CC1(C)CN(c2cccc([C@H](CC(=O)O)NC(=O)[C@@H]3CCCN(CCCc4ccc5c(n4)NCCC5)C3)c2)CCO1",
    "IC50": "< 100 nM"
  },
  {
    "givenSmiles": "O=C(NC[C@@H](C(=O)O)c1cncc(-c2ccccc2)c1)[C@@H]1CCCN(CCCc2ccc3c(n2)NCCC3)C1",
    "IC50": "< 100 nM"
  },
  {
    "givenSmiles": "O=C(NC[C@H](NC(=O)[C@H]1CC2CCC1CC2)C(=O)O)[C@@H]1CCCN(CCCc2ccc3c(n2)NCCC3)C1",
    "IC50": "< 100 nM"
  },
  {
    "givenSmiles": "O=C(O)C[C@@H](NC(=O)[C@@H]1CCCN(CCCc2ccc3c(n2)NCCC3)C1)c1ccc2nccnc2c1",
    "IC50": "< 100 nM"
  },
  {
    "givenSmiles": "O=C(NC[C@@H](C(=O)O)c1cccc2cn([C@H]3CCC(F)(F)C3)nc12)[C@@H]1CCCN(CCCc2ccc3c(n2)NCCC3)C1",
    "IC50": "100 to 1000 nM"
  },
  {
    "givenSmiles": "O=C(O)C[C@H](OC[C@@H]1CCCN(CCCc2ccc3c(n2)NCCC3)C1)c1cccc(C2CC2)c1",
    "IC50": "> 1000 nM"
  },
  {
    "givenSmiles": "O=C(CC[C@H](NC(=O)C12CCC(CC1)CC2)C(=O)O)N[C@H]1CCN(CCCCc2ccc3c(n2)NCCC3)C1",
    "IC50": "< 100 nM"
  }
]
